system: Escherichia coli NIHJ
Classify: Yes when MIC is strictly less than 10 µg/mL; No when MIC is not.

>>> label_class("CC1(C)S[C@@H]2[C@H](NC(=O)[C@H](NC(=O)c3cnc4cccnc4c3O)C3=CCC=CC3)C(=O)N2[C@H]1C(=O)O")
"Yes"

Continue with the next compound.
[in] Confirm or reject: MIC of `COc1ccc2ncc(C(=O)N[C@@H](C(=O)N[C@@H]3C(=O)N4[C@@H]3SC(C)(C)[C@@H]4C(=O)O)c3ccc(O)cc3)c(O)c2n1` lies strictly below 10 µg/mL
[out] Yes

###

test system: Escherichia coli NIHJ
Listing of entries alongside the reported log10 MIC.
# log10 transformed; quantity=MIC; unit=µg/mL

>>> recorded_result("Cc1ccc2c(O)c(C(=O)N[C@@H](C(=O)N[C@@H]3C(=O)N4[C@@H]3SC(C)(C)[C@@H]4C(=O)O)c3ccccc3)cnc2n1")
0.50
>>> recorded_result("CN(C)c1ccc2ncc(C(=O)N[C@@H](C(=O)N[C@@H]3C(=O)N4[C@@H]3SC(C)(C)[C@@H]4C(=O)O)c3ccc(O)cc3)c(O)c2n1")
0.19
>>> recorded_result("CC1(C)S[C@@H]2[C@H](NC(=O)[C@H](NC(=O)c3cnc4cccnc4c3O)c3ccc(O)cc3)C(=O)N2[C@H]1C(=O)O (mixture of isomers)")
-0.11
>>> recorded_result("Cc1ccc2ncc(C(=O)N[C@@H](C(=O)N[C@@H]3C(=O)N4[C@@H]3SC(C)(C)[C@@H]4C(=O)O)c3ccc(O)cc3)c(O)c2n1")
0.19
>>> recorded_result("CC1(C)S[C@@H]2[C@H](NC(=O)[C@H](NC(=O)c3cnccc3O)c3ccc(O)cc3)C(=O)N2[C@H]1C(=O)O")
1.10
>>> recorded_result("CC1(C)S[C@@H]2[C@H](NC(=O)[C@H](NC(=O)c3cnc4ccccc4c3O)c3ccc(O)cc3)C(=O)N2[C@H]1C(=O)O")
0.80
>>> recorded_result("CC1(C)S[C@@H]2[C@H](NC(=O)[C@H](NC(=O)c3nc4ccccc4nc3O)c3ccccc3)C(=O)N2[C@H]1C(=O)O")
0.80
>>> recorded_result("CC1(C)S[C@@H]2[C@H](NC(=O)[C@H](NC(=O)c3cnc4c(c3O)CCCC4)c3ccccc3)C(=O)N2[C@H]1C(=O)O")
1.10
>>> recorded_result("CCOc1cnc2ccccc2c1C(=O)NC(C(=O)N[C@@H]1C(=O)N2[C@@H]1SC(C)(C)[C@@H]2C(=O)O)c1ccccc1 (stereo partly drawn) [B, reference compound]")
1.70
>>> recorded_result("CC1(C)S[C@@H]2[C@H](NC(=O)[C@H](NC(=O)c3cccnc3O)c3ccccc3)C(=O)N2[C@H]1C(=O)O")
1.10

[in] // map `CC1(C)S[C@@H]2[C@H](NC(=O)[C@H](NC(=O)c3nnc4ccccc4c3O)c3ccccc3)C(=O)N2[C@H]1C(=O)O` to recorded log10 MIC (system: Escherichia coli NIHJ)
[out] 1.10

[in] Report log10 MIC for `CC1(C)S[C@@H]2[C@H](NC(=O)[C@H](NC(=O)c3cnc4cn[nH]c4c3O)c3ccccc3)C(=O)N2[C@H]1C(=O)O` tested on Escherichia coli NIHJ.
[out] 0.50

###

This section lists MIC readings for Escherichia coli NIHJ.
Could you give me the number in µg/mL? Just the number is fine.

>>> recorded_result("Cc1ccc2c(O)c(C(=O)N[C@@H](C(=O)N[C@@H]3C(=O)N4[C@@H]3SC(C)(C)[C@@H]4C(=O)O)c3ccc(O)cc3)cnc2n1")
6.25
>>> recorded_result("CC1(C)S[C@@H]2[C@H](NC(=O)[C@H](NC(=O)c3cnc4cccnc4c3O)c3ccccc3)C(=O)N2[C@H]1C(=O)O")
1.56

Attention now turns to another entry.
[in] Kindly state the measured MIC obtained for `CC1(C)S[C@@H]2[C@H](NC(=O)[C@H](NC(=O)c3ccnnc3O)c3ccccc3)C(=O)N2[C@H]1C(=O)O` with Escherichia coli NIHJ.
[out] 12.5
